Each recorded value in this set is attributed to PubChem BioAssay AID463212.

protocolText: growth inhibitors of tim23-1 mutant yeast, primary screen, luminescence, uHTS (AID 463212);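 also: temperature-sensitive mutant grown at 25 °C; plate controls were DMSO-treated mutant yeast for no effect and medium wells lacking yeast for full effect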
conditionDescription: S. cerevisiae tim23-1 growth, BacTiter-Glo luminescence, 24 h; at 20 µM
About 4,400 (1.3%) of roughly 330,000 compounds were called active.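 The calls were made as follows: active = growth inhibition of the mutant yeast at or above 50%; inactive = the rest.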 The list comes from a sample in which actives are over-represented; it also holds close analogues and randomly drawn compounds.
// one of active, inactive, no free text

# count of solved cases: 4
1. COC(=O)c1ccc(-c2c(-c3ccccc3)ncc3cc(OC)c(OC)cc23)cc1 | inactive
2. CCCc1cc(=O)[nH]c(SCC(=O)OCc2ccccc2)n1 | inactive
3. Cc1ccccc1OCC(=O)Nc1ccc(N2CCN(C(=O)C(C)C)CC2)c(Cl)c1 | active
4. Cc1ccc(NS(=O)(=O)c2ccc3c(c2)oc(=O)n3C)c(C)c1 | inactive

Q: Hello, I am checking results. What call was entered for Cc1ccc(C2CC(=O)NC(SCC(=O)OCc3ccccc3)=C2C#N)o1 (stereo not given) ?
A: active

====

protocolText: growth inhibitors of tim23-1 mutant yeast, primary screen, luminescence, uHTS (AID 463212);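 also: temperature-sensitive mutant grown at 25 °C; plate controls were DMSO-treated mutant yeast for no effect and medium wells lacking yeast for full effect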
conditionDescription: S. cerevisiae tim23-1 growth, BacTiter-Glo luminescence, 24 h; at 20 µM; active compounds read high
The campaign covered roughly 330,000 compounds. About 4,400 (1.3%) were called active. The full list was thinned out, with actives kept by preference.
readout: inhibition (%)
# number only, unit % dropped from output

1) O=C1COc2ccc(S(=O)(=O)NCCc3ccc(Cl)cc3)cc2N1 | 8.79

Looking up COC(=O)c1sccc1NN1C(=O)c2ccccc2C1=O , I found its inhibition recorded as 13.6

Measured inhibition of COc1cc(Br)cc(/C=N/c2ncn[nH]2)c1O : 72.2

Looking up C=CCn1c(Cn2nnc3ccccc32)nnc1SCC(=O)N/N=C/c1cc(Br)cc(OC)c1O , I found its inhibition recorded as 7.67

====

protocolText: growth inhibitors of tim23-1 mutant yeast, primary screen, luminescence, uHTS (AID 463212);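 also: temperature-sensitive mutant grown at 25 °C; plate controls were DMSO-treated mutant yeast for no effect and medium wells lacking yeast for full effect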
conditionDescription: S. cerevisiae tim23-1 growth, BacTiter-Glo luminescence, 24 h; at 20 µM; active compounds read high
In all, about 330,000 compounds went through this assay and about 4,400 (1.3%) were called active. What follows is part of a selection rich in actives, with near analogues and random picks from the rest.
readout: inhibition (%)
Give the number; % is assumed, so skip it.

1. CCCSC(=S)NC1CCS(=O)(=O)C1 (stereo not given) | 8.59
2. CCCCN1C(=O)CC(N2CCOCC2)C1=O (stereo not given) | -1.61
3. Cc1ccnc(NC(=O)CCC(=O)N(CC(=O)NCCc2ccccc2)Cc2cccs2)c1 | 6.97
4. C/C(=N\N(C)C)c1ccc(OCCOc2ccc([N+](=O)[O-])cc2)cc1 | 20.4
5. COc1ccc(CS(=O)/C(Cl)=C(/Cl)C(=O)Nc2ccc(OC)nc2)cc1 (stereo not given) | 85.7
6. COc1ccc(OCCn2ccnc2C)cc1 | -7.96
7. CC(C)(C)c1ccc(C(=O)N2CCN(CCNC(=O)C(=O)Nc3ccc(F)cc3)CC2)cc1 | 16.2
8. CC1CC2=C(CC1/C=N/NC(N)=S)C(C)(C)CCC2 (stereo not given) | 50.5

Form: compound = C(=N\Nc1ccc2ccccc2n1)/c1ccc2c(c1)OCO2 ; inhibition = 18.7

Kindly note the recorded inhibition for O=C(Nc1nnc(SCc2c(Cl)cccc2Cl)s1)C1CCCO1 (stereo not given) , which is 52.3

Short answer for N/C(Cc1ccc([N+](=O)[O-])cc1)=N\OC(=O)COc1ccc2ccccc2c1 : inhibition was 60.5

O=C(COC(=O)/C(=C/c1cccs1)c1cccs1)NCc1ccccc1Cl has a reported inhibition of 24

Form: compound = Cc1ccc(/C(N)=N/OC(=O)COc2ccc(Cl)c(C)c2)cc1 ; inhibition = 24.2

inhibition measured on O=C(COC(=O)c1cc[n+]([O-])cc1)Nc1ccc(Cl)c(C(F)(F)F)c1 = 5.05

Query COc1ccc(/C(N)=N/OC(=O)Cc2ccccc2)cc1 yields inhibition of 21.8

Consider CC(C)N(C(=O)[C@H]1C[C@H](CC(=O)NC(C)(C)C)C(=O)N2CCc3c([nH]c4ccc(Cl)cc34)[C@]12C)C(C)C . Its measured inhibition is 43.7

Memo: CCc1ccc2c(c1)C1(NN=C(c3ccccc3)S1)C(=O)N2 (stereo not given) , reported inhibition: 52.6

Looking up COc1ccc(CCNC(=O)c2cnc(Cl)c(Cl)c2)cc1 , I found its inhibition recorded as 1.06

// recorded inhibition for Cc1ccc(NNC(=O)c2c(F)cccc2Cl)cc1Cl : 44.2

Lab note: Cc1cc(C)cc(OCC(=O)O/N=C(\N)Cc2ccc([N+](=O)[O-])cc2)c1 gave inhibition of 26.9

Form: compound = O=[N+]([O-])c1ccc(N=Cc2c(O)ccc3ccccc23)cc1 ; inhibition = 55.5

Note to self: inhibition recorded for O=C(NCC(O)c1ccc([N+](=O)[O-])cc1)C1CCCCC1 (stereo not given) was -0.943

In plain terms, CSc1ccc(S(=O)(=O)N2CCC(C(=O)NCc3ccncc3)CC2)cc1 has a documented inhibition of 0.185

The measured inhibition associated with COc1ccc(CNC(=O)c2cc(=O)c3c(C)cc(C)cc3o2)cc1 reads 28.5

Reported inhibition ( COc1ccc(N(CC(=O)NC2CCCCC2)S(=O)(=O)c2c(C)[nH]c(=O)[nH]c2=O)cc1 ) = 6.85
